furin cleavage Z-score for assorted sequences
- TARGET DESC: furin, P09958;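 further: purified furin at 1:10 enzyme:substrate in 50 mM HEPES pH 7.5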
- Sequence (P09958 whole entry): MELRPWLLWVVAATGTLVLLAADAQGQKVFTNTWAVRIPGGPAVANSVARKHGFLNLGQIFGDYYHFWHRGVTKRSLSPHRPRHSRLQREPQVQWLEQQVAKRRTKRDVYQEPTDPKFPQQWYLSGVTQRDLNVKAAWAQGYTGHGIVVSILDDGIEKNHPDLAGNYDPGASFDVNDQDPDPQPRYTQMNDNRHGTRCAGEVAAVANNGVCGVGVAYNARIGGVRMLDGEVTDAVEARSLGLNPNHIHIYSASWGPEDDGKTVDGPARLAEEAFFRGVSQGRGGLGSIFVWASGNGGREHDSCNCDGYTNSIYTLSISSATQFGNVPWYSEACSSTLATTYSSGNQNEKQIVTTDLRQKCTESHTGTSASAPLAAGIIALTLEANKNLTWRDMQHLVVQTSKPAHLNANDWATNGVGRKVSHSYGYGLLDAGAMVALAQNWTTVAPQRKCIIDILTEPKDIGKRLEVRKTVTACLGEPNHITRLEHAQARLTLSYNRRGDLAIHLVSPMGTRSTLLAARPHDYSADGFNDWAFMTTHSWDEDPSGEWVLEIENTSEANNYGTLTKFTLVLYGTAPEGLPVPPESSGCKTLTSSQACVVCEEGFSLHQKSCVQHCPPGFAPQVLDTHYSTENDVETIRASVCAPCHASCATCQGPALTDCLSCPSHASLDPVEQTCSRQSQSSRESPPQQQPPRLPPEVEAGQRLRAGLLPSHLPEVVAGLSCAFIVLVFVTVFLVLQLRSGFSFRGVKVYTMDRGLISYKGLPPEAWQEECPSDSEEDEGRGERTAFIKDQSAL
- METHOD DESCRIPTION: furin cleavage Z-score vs untreated control; higher = more cleavage, active = 3.5 or more, inactive = 1 or less, 8 variable residues between constant flanks
- ASSAY CONTEXT: 15 min
The list shows a part of the results. No count for the full screen is at hand.
A bare number is all that is needed in reply.

SEQUENCE RECORD	MEASUREMENT LABEL	RESULT NUMBER
CAAGARLVVLAGNASASA [HC830]	furin cleavage Z-score	0.934
CAMEECSVHLAGNASASA [HC1730]	furin cleavage Z-score	-0.406

For the sequence CAAGARKKRAAGNASASA [FS-970] , give its reported furin cleavage Z-score.
6.95

Could you please provide reported furin cleavage Z-score for CAGCPERLASAGNASASA [HC386] ? Thanks!
0.605
